biological target: hAM1R (human, UniProt Q16602); assay: cell-based or functional assay
Numbered stars: 1 amine (or outer) side, 2 acyl side, 3 side chain; on linkers, the order of the positions; unused ones are H or OH. Bridge positions count the residues as written; N and C are the ends. Square brackets hold non-standard residues; d marks the D form. Side chains are listed from the residue outwards. Ends that are not written are not given here. * marks the point of attachment. C20 diacid = O=C(O)CCCCCCCCCCCCCCCCCCC(=O)*; γGlu = O=C(O)[C@H](CCC(=O)[*:2])N[*:1]; Hyp = O=C(O)[C@@H]1C[C@@H](O)CN1; Cit = NC(=O)NCCC[C@H](N)C(=O)O; AEEA = NCCOCCOCC(=O)O
property.measured: hAM1R EC50 (cAMP) (nM)

binder	operator	numeric.readout
GCRTGTCTVQRLAHQIYQFTDKDKDNVAPRSNVSPQG[Hyp]-NH2 (disulfide 2-7 (inferred); ends not checked) [SEQ ID NO: 224]	=	2980
GCRFGTCTVQRLAHFLYQFTDKDGAIAPRTKIGSQGY [SEQ ID NO: 123]	=	31.7
GCRTGTCTVQRLAHQIYQFTDKDKDNVAPRSNVGPQGY [SEQ ID NO: 138]	=	2980
{C20 diacid-γGlu}-KCNTATCTVQRLAHQIAQFTDKDKDPVAPPTNVGSNG[Hyp]-NH2 (disulfide 2-7 (inferred); not fully specified; ends not checked) [SEQ ID NO: 92]	=	933
GCRTGTCTVQWLAHQIYQFTDKDKDNVAPRTNIGPQGY [SEQ ID NO: 356]	>	5000
{C20 diacid-γGlu}-KCNFATCATQRLANFLVQFTDKDKDNVAPRSKIGPQGY-NH2 (disulfide 2-7 (inferred); ends not checked) [SEQ ID NO: 389]	=	1.04
GCRTGTCTVQRLAHQIYQFTDKFKDNVAPRSKISPQP[Hyp] (ends and bridges not checked) [SEQ ID NO: 203]	>	5000
{C20 diacid-γGlu}-KCNTATCTVARLAHQIYQFTDKDKDNVAPPTNVGSNG[Hyp]-NH2 (disulfide 2-7 (inferred); ends not checked) [SEQ ID NO: 37]	>	5000
GCRTGTCTVQRLAHQIYQFTDKDKDNVAPRSKIGPQG[Hyp]-NH2 (disulfide 2-7 (inferred); ends not checked) [SEQ ID NO: 179]	=	2980
KCNTATCATQRLANFLVHSSNNFGAILPSTKIGSNGY [SEQ ID NO: 207]	>	5000
GCRTGTCTVQRLAHQIYQFTDKDKDNVAPRSNVGPNGY [SEQ ID NO: 177]	=	2980
{C20 diacid-γGlu}-GCRFGTCTVQRLANQIYQFTDKDKDNVAPRTNVGPQGY-NH2 (disulfide 2-7 (inferred); ends not checked) [SEQ ID NO: 372]	=	3.94
KCNTATCTVQ[Cit]LAHQIYQFTDKDADNVAPPTNVGSNG[Hyp]-NH2 (disulfide 2-7 (inferred); ends not checked) [SEQ ID NO: 250]	>	5000
GCRFGTCTVQ[Cit]LAHQIYQFTDKDKDNVAPRTKISPNG[Hyp]-NH2 (disulfide 2-7 (inferred); ends not checked) [SEQ ID NO: 275]	>	5000
KCNTATCTVQRLAEQIYQFTDKDKDNK([AEEA-AEEA-γGlu-C20 diacid])APPTNVGSNG[Hyp]-NH2 (disulfide 2-7 (inferred); ends not checked) [SEQ ID NO: 12]	>	5000
GCRFGTCTVQWLAHQIYQFTDKDKDNVAPRTKVGPQG[Hyp]-NH2 (disulfide 2-7 (inferred); ends not checked) [SEQ ID NO: 322]	=	1390
{C20 diacid-γGlu}-KCNTATCTVQRLAHQIYQFTDKDKDNVAPPTNVGSNG[Hyp]-NH2 (disulfide 2-7 (inferred); not fully specified; ends not checked) [SEQ ID NO: 77]	>	5000
GCRFGTCTVQ[Cit]LAHQIYQFTDKDKDNVAPRSNVSPQGY-NH2 (disulfide 2-7 (inferred); ends not checked) [SEQ ID NO: 286]	=	139
KCNTATCTVQ[Cit]LAHQIYQFTDKDKDNAAPPTNVGSNG[Hyp]-NH2 (disulfide 2-7 (inferred); ends not checked) [SEQ ID NO: 251]	>	5000
